Tested on: human red blood cells (hRBC)
PROTOCOL DETAILS: Hemolysis of human red blood cells
Format: cell-based
ASSAY CONDITIONS: red cells of human, 1 h, 100
*1 amine or outer side, *2 acyl side, *3 side chain or, on linkers, in order; H or OH if unused. Where a SMILES comes first, the peptide text is derived from it. Side-chain parts run from the residue outwards. [ ]: non-standard residue; d: D form. The star is where a group is joined. Cha = N[C@@H](CC1CCCCC1)C(=O)O; NH(3-picolyl) = c1cncc(CN*)c1; Chg = N[C@H](C(=O)O)C1CCCCC1; Tle = CC(C)(C)[C@H](N)C(=O)O; dDab = NCC[C@@H](N)C(=O)O; Orn = NCCC[C@H](N)C(=O)O; dDap = NC[C@@H](N)C(=O)O; Dab = NCC[C@H](N)C(=O)O; Nva = CCC[C@H](N)C(=O)O; Dap = NC[C@H](N)C(=O)O; CO = O=C([*:1])[*:2]
Each entry below carries its reported Hemolysis at 100 μg/ml.
The answer is to be given in %; state only the numeric part.

Q: Report its Hemolysis at 100 μg/ml with human red blood cells (hRBC) as the test system: CC(C)C[C@@H]1NC(=O)[C@@H]2CCCN2C(=O)[C@H]2CCCN2C(=O)[C@H](CO)NC(=O)[C@H](C)NC(=O)[C@H](Cc2ccc(O)cc2)NC(=O)[C@H](CCN)NC(=O)[C@H](Cc2c[nH]c3ccccc23)NC(=O)[C@H](CCN)NC(=O)[C@@H](CCN)NC(=O)[C@H](CCCN)NC(=O)[C@H](CCN)NC(=O)[C@H](Cc2ccc(O)cc2)NC(=O)[C@H](CO)NC1=O [compound 31] (cyclo(LSY[Dab][Orn][dDab][Dab]W[Dab]YAS[dP]P))
A: 1

Q: Enter recorded Hemolysis at 100 μg/ml with human red blood cells (hRBC) for CCC[C@@H]1NC(=O)[C@@H]2CCCN2C(=O)[C@H]2CCCN2C(=O)[C@H]([C@@H](C)O)NC(=O)[C@H](CO)NC(=O)[C@H](C2CCCCC2)NC(=O)[C@H](CCN)NC(=O)[C@H](Cc2c[nH]c3ccccc23)NC(=O)[C@H](CCN)NC(=O)[C@@H](CCN)NC(=O)[C@H](CCN)NC(=O)[C@H](CCN)NC(=O)[C@H](Cc2ccc(O)cc2)NC(=O)[C@H](C)NC1=O [compound 132] (cyclo([Nva]AY[Dab][Dab][dDab][Dab]W[Dab][Chg]ST[dP]P)) here.
A: 1.5

Q: Quote Hemolysis at 100 μg/ml with test system human red blood cells (hRBC) for C[C@@H]1NC(=O)[C@H](C(C)(C)C)NC(=O)[C@H](CCN)NC(=O)[C@H](Cc2c[nH]c3ccccc23)NC(=O)[C@H](CCN)NC(=O)[C@@H](CN)NC(=O)[C@H](CCCN)NC(=O)[C@H](CCN)NC(=O)[C@H](CC2CCCCC2)NC(=O)[C@H](CO)NC(=O)[C@H](Cc2c[nH]c3ccccc23)NC(=O)[C@@H]2CCCN2C(=O)[C@H]2CCCN2C(=O)[C@H](CO)NC1=O [compound 19] (cyclo(WS[Cha][Dab][Orn][dDap][Dab]W[Dab][Tle]AS[dP]P))
A: 3

Q: Give Hemolysis at 100 μg/ml for this entry on human red blood cells (hRBC): CC(C)[C@@H]1NC(=O)[C@@H]2CCCN2C(=O)[C@H]2CCCN2C(=O)[C@H](CO)NC(=O)[C@H](C)NC(=O)[C@H](C(C)(C)C)NC(=O)[C@H](CCN)NC(=O)[C@H](Cc2c[nH]c3ccccc23)NC(=O)[C@H](CCN)NC(=O)[C@@H](CCN)NC(=O)[C@H](CCCN)NC(=O)[C@H](CCN)NC(=O)[C@H](CC2CCCCC2)NC(=O)[C@H](C)NC1=O [compound 51] (cyclo(VA[Cha][Dab][Orn][dDab][Dab]W[Dab][Tle]AS[dP]P))
A: 1

Q: Provide Hemolysis at 100 μg/ml, system human red blood cells (hRBC), entry C[C@@H]1NC(=O)[C@H](C(C)(C)C)NC(=O)[C@H](CCN)NC(=O)[C@H](Cc2c[nH]c3ccccc23)NC(=O)[C@H](CCN)NC(=O)[C@@H](CCN)NC(=O)[C@H](CCCN)NC(=O)[C@H](CCN)NC(=O)[C@H](CC2CCCCC2)NC(=O)[C@H](CNC(=O)NCc2cccnc2)NC(=O)[C@H](Cc2c[nH]c3ccccc23)NC(=O)[C@@H]2CCCN2C(=O)[C@H]2CCCN2C(=O)[C@H](CO)NC1=O [compound 16] (cyclo(W[Dap]([CO-NH(3-picolyl)])[Cha][Dab][Orn][dDab][Dab]W[Dab][Tle]AS[dP]P))
A: 7

###

System: human red blood cells (hRBC)
PROTOCOL DETAILS: Hemolysis of human red blood cells
Type: cell-based
ASSAY CONDITIONS: red cells of human, 1 h, 100
Experimental: Lyophilized peptides were weighed on a Microbalance (Mettler MT5) and dissolved in sterile water to a final concentration of 1 mg/ml. Stock solutions were kept at +4° C., light protected. The peptides were tested for their hemolytic activity against human red blood cells (hRBC). […] A value of 0% and 100% cell lyses, respectively, was determined by incubation of hRBC in the presence of PBS containing 0.001% acetic acid and 2.5% Triton X-100 in H2O, respectively. […]
Where a SMILES comes first, the peptide text is derived from it. [ ]: non-standard residue; d: D form. Phe(4-F) = N[C@@H](Cc1ccc(F)cc1)C(=O)O; Cha = N[C@@H](CC1CCCCC1)C(=O)O; Tle = CC(C)(C)[C@H](N)C(=O)O; dDab = NCC[C@@H](N)C(=O)O; Orn = NCCC[C@H](N)C(=O)O; Dab = NCC[C@H](N)C(=O)O; Nva = CCC[C@H](N)C(=O)O; Dap = NC[C@H](N)C(=O)O
RESULT TYPE: Hemolysis at 100 μg/ml (%)
Write the value in % as a bare number.

| COMPOUND | STUDY SYSTEM | RESULT TYPE | QUANTITATIVE RESULT |
| --- | --- | --- | --- |
| CC(C)C[C@@H]1NC(=O)[C@@H]2CCCN2C(=O)[C@H]2CCCN2C(=O)[C@H](CO)NC(=O)[C@H](C)NC(=O)[C@H](C(C)(C)C)NC(=O)[C@H](CCN)NC(=O)[C@H](Cc2c[nH]c3ccccc23)NC(=O)[C@H](CCN)NC(=O)[C@@H](CCN)NC(=O)[C@H](CCCN)NC(=O)[C@H](CN)NC(=O)[C@H](Cc2ccc(O)cc2)NC(=O)[C@H](CO)NC1=O [compound 91] (cyclo(LSY[Dap][Orn][dDab][Dab]W[Dab][Tle]AS[dP]P)) | human red blood cells (hRBC) | Hemolysis at 100 μg/ml | 0 |
| CC(C)C[C@@H]1NC(=O)[C@@H]2CCCN2C(=O)[C@H]2CCCN2C(=O)[C@H](CO)NC(=O)[C@H](CO)NC(=O)[C@H](C(C)(C)C)NC(=O)[C@H](CCN)NC(=O)[C@H](Cc2c[nH]c3ccccc23)NC(=O)[C@H](CCN)NC(=O)[C@@H](CCN)NC(=O)[C@H](CCCN)NC(=O)[C@H](CCN)NC(=O)[C@H](CC2CCCCC2)NC(=O)[C@H](C)NC1=O [compound 152] (cyclo(LA[Cha][Dab][Orn][dDab][Dab]W[Dab][Tle]SS[dP]P)) | human red blood cells (hRBC) | Hemolysis at 100 μg/ml | 5 |
| CC(C)C[C@@H]1NC(=O)[C@@H]2CCCN2C(=O)[C@H]2CCCN2C(=O)[C@H](CO)NC(=O)[C@H](C)NC(=O)[C@H](C(C)(C)C)NC(=O)[C@H](CCN)NC(=O)[C@H](Cc2c[nH]c3ccccc23)NC(=O)[C@H](CCN)NC(=O)[C@@H](CCN)NC(=O)[C@H](CCCN)NC(=O)[C@H](CCN)NC(=O)[C@H](Cc2ccccc2)NC(=O)[C@H](CO)NC1=O [compound 28] (cyclo(LSF[Dab][Orn][dDab][Dab]W[Dab][Tle]AS[dP]P)) | human red blood cells (hRBC) | Hemolysis at 100 μg/ml | 2 |

Q: Given CCC[C@@H]1NC(=O)[C@@H]2CCCN2C(=O)[C@H]2CCCN2C(=O)[C@H](CO)NC(=O)[C@H](C)NC(=O)[C@H](C(C)(C)C)NC(=O)[C@H](CCN)NC(=O)[C@H](Cc2c[nH]c3ccccc23)NC(=O)[C@H](CCN)NC(=O)[C@@H](CCN)NC(=O)[C@H](CCCN)NC(=O)[C@H](CCN)NC(=O)[C@H](Cc2ccc(F)cc2)NC(=O)[C@H](CO)NC1=O [Ex. 104] (cyclo([Nva]S[Phe(4-F)][Dab][Orn][dDab][Dab]W[Dab][Tle]AS[dP]P)) , respond with its Hemolysis at 100 μg/ml.
A: 0.5

Q: Answer with reported Hemolysis at 100 μg/ml of CC(C)[C@@H]1NC(=O)[C@@H]2CCCN2C(=O)[C@H]2CCCN2C(=O)[C@H](CO)NC(=O)[C@H](C)NC(=O)[C@H](C(C)(C)C)NC(=O)[C@H](CCN)NC(=O)[C@H](Cc2c[nH]c3ccccc23)NC(=O)[C@H](CCN)NC(=O)[C@H](CCN)NC(=O)[C@H](CCCN)NC(=O)[C@H](CCN)NC(=O)[C@H](Cc2ccc(O)cc2)NC(=O)[C@H](CO)NC1=O [compound 49] (cyclo(VSY[Dab][Orn][Dab][Dab]W[Dab][Tle]AS[dP]P))
A: 1
